system: NCI-H322M lung; test: NCI-60 one-dose screen, 48 h; settings: 10 µM unless noted
About 83,000 compounds went through this panel and 20% of them were active in at least one assay; those are over-represented in the sample as a whole. The source made the active and inactive calls. The calls were made as follows: active = growth percent below 10; inactive = the rest.
// classify into active, inactive

| compound | discrete label |
| --- | --- |
| N#Cc1c(-c2ccc(Cl)cc2)nc2c(c(-c3ccccc3)nn2-c2ccccc2)c1-c1ccc(O)cc1 | inactive |
| CN1C(=O)CNC(=O)[C@H](NC(=O)c2nc3ccccc3cc2O)CSSC[C@H]1C(=O)NCCCc1nc2ccccc2cc1O | inactive |
| CCN1C(=O)N(CC)C2Nn3c(s/c(=C4\C(=O)Nc5ccccc54)c3=O)=NC21 (stereo not drawn) | inactive |
| Cc1ccc(C(=O)N/N=C/c2cccc(Oc3ccccc3)c2)cn1 | inactive |
| Cc1cc(-c2cc(C)c(N)cc2C)c(C)cc1N | inactive |
| Cc1cc(N2CCCC2)nc(N(CCCNc2ccnc3cc(Cl)ccc23)Cc2ccccn2)n1 | inactive |
| O=C(N/N=C/c1c(Cl)cccc1Cl)c1ccc(C(F)(F)F)nc1Nc1cccc(C(F)(F)F)c1 | active |

Consider now this further compound.
Status in this test for `Cc1cc2nc3ccc(N=Nc4ccc(N(C)C)cc4)cc3n(-c3ccccc3)c-2cc1=N` ?
active

====

system: T-47D breast; experiment: NCI-60 one-dose screen, 48 h (100 = growth as untreated, 0 = no growth, -100 = all killed); conditions: 10 µM unless noted
This is part of a sample that, as a whole, favours compounds with a hit. Of some 83,000 tested, about 20% had one in any assay.
Classification field: y = growth at or over 40%; n = growth under 40%.

| compound | discrete label |
| --- | --- |
| CN1C(=O)CNC(=O)[C@H](NC(=O)c2nc3ccccc3cc2O)CSSC[C@H]1C(=O)NCCCc1nc2ccccc2cc1O | y |

Entry `COc1cccc(Cc2nn3cc(-c4ccccc4)nc3s2)c1` : is its growth no less than 40%?
y

Ok, now `O=c1n(Cc2ccc3ccccc3c2)ccn1Cc1ccc2ccccc2c1`
y

Similarly, `CCOC(=O)c1[nH]c(C)c(C(=O)OCc2ccccc2C#N)c1C` ?
y

Now consider `CCOC(=O)Cn1c(C)c(/C=N/NC(=O)c2cc3c(ccc4ccccc43)o2)c2ccccc21` and answer again.
y

Item: COC(=O)C(Cc1ccccc1)NC(=O)NC(=O)NC(=O)CI (configuration not stated)
y

====

system: SNB-75 CNS; test: NCI-60 one-dose screen, 48 h; settings: 10 µM unless noted
Compounds without any hit were thinned out: in the full panel of roughly 83,000, 20% have a hit. The source made the active and inactive calls. How the source made its calls: active means growth percent below 10; inactive means the rest.
Answer with one of the outcomes label 1 (active), label 0 (inactive)

Worked cases, answers included:
| compound | discrete label |
| --- | --- |
| O=C(Nc1ccc(Br)cc1F)c1cc(Br)ccc1O | label 1 |
| COc1ccc2nc(NC(=O)c3cccnc3Nc3ccc(S(N)(=O)=O)cc3)sc2c1 | label 0 |

Moving on to another compound below.
How was `CC(C)OC(=O)Nc1ccc(-c2nc(-c3cccc(OCCN4CCOCC4)c3)c(-c3ccnc(Br)c3)[nH]2)cc1` classified in this test?
label 1

====

tested on: SF-268 CNS; assay: NCI-60 one-dose screen, 48 h (100 = growth as untreated, 0 = no growth, -100 = all killed); conditions: 10 µM unless noted
The panel holds about 83,000 compounds, 20% with a hit somewhere; the sample as a whole holds those more often.
measure: growth (%)
One number for each entry, in %.

| compound | display unit | value reported |
| --- | --- | --- |
| NCCOc1ncccc1/C=C1\C2C=CC=CC2C2C=CC(F)=CC12 (configuration not stated) | % | 32.3 |
| CC(C)c1cc(C(C)C)c(S(=O)(=O)Oc2ccc(NC(=O)c3ccc(Cl)cc3)cc2)c(C(C)C)c1 | % | 50.6 |
| Cc1cccc2c3c(sc12)C(c1ccc(Cl)cc1)C(C#N)=C(N)O3 (configuration not stated) | % | 44.8 |
| NC(=O)C1(Nc2ccc(Br)cc2)CCCC1 | % | 106 |
| CCc1cccc2c1S/C(=C/c1ccc(Cl)cc1)C2=O | % | 93 |
| CNC(=O)c1[nH]cc(-c2ccccc2)c1-c1cc(OC)c2c(c1OC)OCO2 | % | 93.6 |
| CC1=C([Se]CC(OC(=O)[C@@H](CSSC(C)(C)C)NC(=O)OC(C)(C)C)C(=O)NC(C)(C)C)C(=O)c2ccccc2C1=O (some centres not stated) | % | -96.6 |
| O=c1c2cc(F)ccc2sc2c(NCCN3CCOCC3)nc3ccccc3c12 | % | 68.7 |
| CC1(C)C2CC1C1(/C=N/NC(N)=S)C(C2)C(C#N)(C#N)C1(C#N)C#N (configuration not stated) | % | 97.4 |
| Cc1[nH]c(C(=O)Nc2ccc(C(=O)N3CCNCC3)cc2OC(C)C)c(Cl)c1Cl | % | 74.4 |

# return growth for each item in the list
1. CC1=C(C)C(=O)C(Nc2cccc(C(=O)OC(C)(C)C)c2)=C(Br)C1=O
2. CCC(=O)Nc1ccc(-c2nc(-c3cccc(OC)c3)c(-c3ccnc(Br)c3)[nH]2)cc1

1. 93.7
2. 75.8

====

test system: U251 CNS; assay: NCI-60 one-dose screen, 48 h (100 = growth as untreated, 0 = no growth, -100 = all killed); conditions: 10 µM unless noted
This is part of a sample that, as a whole, favours compounds with a hit. Of some 83,000 tested, about 20% had one in any assay.
Please go through the items and note down their growth.
Answers are plain numbers, in %.

# per-item lookup of growth; items listed below
1. CC(=O)CC(c1cccs1)c1c(-c2ccccc2)[nH]c2ccccc12 (stereo not drawn)
2. COc1ccc(-c2csc(NC(=O)N3CCN(c4cc5c(cc4F)c(=O)c(C(=O)O)cn5C4CC4)CC3)n2)cc1
3. O=C1COCCN1c1ccc(NCc2cn(C(=O)c3ccc(Cl)cc3)c3ccccc23)cc1
4. O=C1CSC(c2c(Cl)cccc2Cl)N1c1nc(Cl)cc(=O)[nH]1 (stereo not drawn)
5. O=C(N/N=C/[C@H](O)[C@@H](O)[C@@H](O)[C@H](O)CO)c1ccc(NC(=O)c2cccnc2)cc1
6. COc1ccc(-c2[nH]ncc2-c2cc3c(c(OC)c2)OCC(=O)N3)cc1

1. 93.8
2. 6.54
3. 50.9
4. 112
5. 102
6. 11.3

====

test system: SF-539 CNS; assay: NCI-60 one-dose screen, 48 h (100 = growth as untreated, 0 = no growth, -100 = all killed); conditions: 10 µM unless noted
The panel holds about 83,000 compounds, 20% with a hit somewhere; the sample as a whole holds those more often.
In this scheme, each record receives a class according to its growth; the ranges are lo (below 30%), mid (30% to below 90%), hi (90% or more)

Solved cases below.
| compound | discrete label |
| --- | --- |
| N#Cc1c(-c2ccc(Cl)cc2)nc(NCCO)[nH]c1=O | hi |
| Cc1cccc(NC2=C(Cl)C(=O)c3nc(C)ccc3C2=O)c1 | lo |

Hi, small favor: classify `O=CN(SSN(C=O)C1CCCCC1)C1CCCCC1` by its growth when you get a moment.
hi

Cool, now `c1ccc(Cc2nn3cc(-c4ccccc4)nc3s2)cc1`
hi

Likewise for `COc1cc(/C=C/c2ccccc2)cc(OC)c1` ?
hi

And for `c1ccc2cc(C[n+]3ccn(CCCCCCn4cc[n+](Cc5ccc6ccccc6c5)c4)c3)ccc2c1` ?
mid

`N/C(=N\c1nc2ccccc2s1)NC(=O)Nc1cccc2ccccc12` , same question.
lo

====

test system: M14 melanoma; assay: NCI-60 one-dose screen, 48 h; conditions: 10 µM unless noted
Compounds without any hit were thinned out: in the full panel of roughly 83,000, 20% have a hit. Calls of active or inactive are those of the source. The calls were made as follows: active = growth percent below 10; inactive = the rest.
Pick from y for active, n for inactive when you respond.

Hello, I am checking results. What call was entered for `COc1ccc(-c2cc(-c3cc(OC)c(OC)c(OC)c3)nc(N3CCOCC3)c2C#N)cc1` ?
n

Next compound up: COc1ccc(C2CC(c3ccc(Nc4ccnc5cc(Cl)ccc45)cc3)=NN2C=O)cc1 (stereo not drawn)
n

====

tested on: HOP-62 NSCLC; assay: NCI-60 one-dose screen, 48 h; conditions: 10 µM unless noted
The panel holds about 83,000 compounds, 20% with a hit somewhere; the sample as a whole holds those more often. Active and inactive are the calls of the source. How the source made its calls: active means growth percent below 10; inactive means the rest.
Form entry, call: pick from active, inactive

| compound | discrete label |
| --- | --- |
| COc1cc(-c2nc3sccn3c2-c2ccnc(NCCCNS(=O)(=O)c3ccc(F)cc3)n2)ccc1F | inactive |
| CCOC(=O)c1sc2ncc(-c3ccc(OC)cc3)n2c1C | inactive |
| COc1ccc(-c2nn(C(=O)c3cc(OC)c(OC)c(OC)c3)c3cc(N)ccc23)cc1 | inactive |
| Nc1nc(Cl)cc(=O)n1Cc1ccccc1 | inactive |
| C=C(C)[C@@H]1CC[C@]2(N=C=O)CC[C@]3(C)[C@H](CC[C@@H]4[C@@]5(C)Cc6c([nH]c7ccccc67)C(C)(C)[C@@H]5CC[C@]43C)[C@@H]12 | inactive |

Fill in: this test's call for `CCCCCCNC(=O)Oc1ccc(/C(=C(\C)c2ccc(Cl)cc2)c2ccc(OCCN(CC)CC)cc2)cc1` is ___
inactive

Param item: COc1ccc([C@H]2c3cc(OC)c(OC)cc3C=C(C=O)C2CO)cc1OC (stereo not given in full)
inactive

Queued: `Cc1c(C(=O)NCCCc2ccccc2)sc2ncc(-c3ccc(Br)cc3)n12`
inactive

What do we get for `CCCCC[C@H](O)C/C=C1/C(=O)C=C[C@@H]1C/C=C\CCCC(=O)O` ?
inactive

# iterate: `COc1ccc(NC2=C(Br)C(=O)C(C)=C(C)C2=O)cc1`
inactive

Another: Cc1ccc(C(=O)NN2C(=O)CSC2c2cccc([N+](=O)[O-])c2)cn1 (stereo not given)
inactive

Same for `COC(=O)CCC/C=C\C[C@H]1C=CC(=O)/C1=C/C[C@@H](O)CCc1cccc(C(F)(F)F)c1`
active
